Target: human RORγt (Homo sapiens, UniProt P51449)
Construct: the full-length cDNA of human RORγt
Sequence (P51449 1-497 isoform P51449-2): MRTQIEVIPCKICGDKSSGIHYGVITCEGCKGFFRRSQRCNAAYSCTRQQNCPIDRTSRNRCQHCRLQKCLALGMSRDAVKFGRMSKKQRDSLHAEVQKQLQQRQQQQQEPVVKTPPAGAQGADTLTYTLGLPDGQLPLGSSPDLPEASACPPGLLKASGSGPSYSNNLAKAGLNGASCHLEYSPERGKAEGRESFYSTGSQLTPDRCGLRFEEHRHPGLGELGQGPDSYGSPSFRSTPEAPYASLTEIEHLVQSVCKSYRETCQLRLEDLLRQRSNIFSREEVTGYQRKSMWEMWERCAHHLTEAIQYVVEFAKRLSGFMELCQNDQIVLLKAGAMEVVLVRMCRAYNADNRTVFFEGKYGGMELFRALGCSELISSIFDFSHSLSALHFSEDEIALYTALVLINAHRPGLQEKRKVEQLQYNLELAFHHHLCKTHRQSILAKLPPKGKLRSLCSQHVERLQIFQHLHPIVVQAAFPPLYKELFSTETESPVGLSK
Assay: RORE Luciferase/RORγt transactivation assay
Settings: COS-7 cells, human IL-17 promoter reporter + RORγt plasmid, 20 h; read-out: IC50, inhibition of RORγt activity (luciferase)
pIC50: −log10 of the molar value.
Measured Parameter: pIC50

{"columns": ["Molecule", "pIC50"],
 "data": [
  ["CC(=O)C1CCN(c2ncc(CC(=O)NC(c3ccc(C)o3)c3ccc(C)cc3C)cn2)CC1 (stereo not shown)", "5.00 to 6.00"]
]}

Problem: Missing value: pIC50, human RORγt (Homo sapiens, UniProt P51449), entry CC(=O)N1CCN(c2nccc(CC(=O)NC(c3ccc(C)o3)c3ccc(C)cc3N3CCCCC3)n2)CC1 (stereo not shown) . Fill in?
Solution: 6.00 to 7.00

Problem: Please state recorded pIC50 (tested on human RORγt (Homo sapiens, UniProt P51449)) of CC(=O)C1CCN(c2ncc(CC(=O)NC(c3ccc(C)o3)c3ccc(C)cc3N3CCCCC3)cn2)CC1 (stereo not shown)
Solution: 6.00 to 7.00

Problem: // map CC(=O)N1CCN(c2ncc(C3(C(=O)NC(c4ccc(C)o4)c4ccc(C)cc4N4CCCCC4)CC3)cn2)CC1 (stereo not shown) to recorded pIC50 (system: human RORγt (Homo sapiens, UniProt P51449))
Solution: > 7.00

Problem: Form entry - test system: human RORγt (Homo sapiens, UniProt P51449); read-out: pIC50; molecule: CC(=O)N1CCN(c2ncc(CC(=O)NC(c3ccc(C)o3)c3ccc(C)cc3N3CCCCC3)cn2)CC1 (stereo not shown)
Solution: 6.00 to 7.00

Problem: Please tell me: pIC50 of Cc1ccc(C(NC(=O)Cc2cnc(N3CCC(S(C)(=O)=O)CC3)nc2)c2ccc(C)o2)c(N2CCCCC2)c1 (stereo not shown) , system human RORγt (Homo sapiens, UniProt P51449)?
Solution: 6.00 to 7.00

Problem: Write down the reported pIC50 of Cc1ccc(C(NC(=O)Cc2ccc(N3CCC(S(C)(=O)=O)CC3)nc2)c2ccc(C)o2)c(N2CCCCC2)c1 (stereo not shown) , test system: human RORγt (Homo sapiens, UniProt P51449).
Solution: 6.00 to 7.00

Hey, just so you know, these numbers are from patent US11974997B2.
